Biological target: Acetylcholinesterase (Electrophorus electricus, UniProt O42275)
Sequence (O42275 whole entry): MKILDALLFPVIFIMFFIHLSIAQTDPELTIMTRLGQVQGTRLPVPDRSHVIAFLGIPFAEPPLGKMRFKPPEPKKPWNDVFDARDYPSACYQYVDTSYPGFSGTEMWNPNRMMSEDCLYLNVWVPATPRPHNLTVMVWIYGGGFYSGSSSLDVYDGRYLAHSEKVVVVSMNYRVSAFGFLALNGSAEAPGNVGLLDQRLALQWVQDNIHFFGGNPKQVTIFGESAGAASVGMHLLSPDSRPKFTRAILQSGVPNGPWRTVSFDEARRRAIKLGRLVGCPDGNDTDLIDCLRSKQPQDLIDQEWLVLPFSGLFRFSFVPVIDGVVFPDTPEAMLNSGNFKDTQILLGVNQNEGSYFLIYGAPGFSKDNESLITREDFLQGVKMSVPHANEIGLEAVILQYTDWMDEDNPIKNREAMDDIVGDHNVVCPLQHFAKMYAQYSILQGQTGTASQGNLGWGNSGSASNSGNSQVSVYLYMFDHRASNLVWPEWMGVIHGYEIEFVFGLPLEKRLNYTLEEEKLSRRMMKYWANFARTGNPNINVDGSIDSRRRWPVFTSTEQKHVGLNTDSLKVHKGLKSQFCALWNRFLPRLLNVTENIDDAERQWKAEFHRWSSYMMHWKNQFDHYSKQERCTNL
MEASURED_PROPERTY: pIC50
pIC50 here is simply -log10 of the concentration when that concentration is written in mol/L.

Example entries and their recorded answers appear below.
[[record]]
compound = "O=C(CCCCC1CCSS1)NCC(O)CNc1c2c(nc3cc(Cl)ccc13)CCCC2 (stereo unspecified)"
measured_property = "pIC50"
readout_value = 7.40

[[record]]
compound = "O=C(CCCCC1CCSS1)NCC(O)CNc1c2c(nc3ccccc13)CCCC2 (stereo unspecified)"
measured_property = "pIC50"
readout_value = 7.00

[[record]]
compound = "O=C(/C=C/c1ccc(O)c(O)c1)NCC(O)CNc1c2c(nc3ccccc13)CCCC2 (stereo unspecified)"
measured_property = "pIC50"
readout_value = 6.15

[[record]]
compound = "O=C(/C=C/c1ccc(O)c(O)c1)NCC(O)CNc1c2c(nc3cc(Cl)ccc13)CCCC2 (stereo unspecified)"
measured_property = "pIC50"
readout_value = 6.82

[[record]]
compound = "COc1cc(/C=C/C(=O)NCC(O)CNc2c3c(nc4ccccc24)CCCC3)ccc1O (stereo unspecified)"
measured_property = "pIC50"
readout_value = 7.52


query: Provide value of pIC50 for this record tested with Acetylcholinesterase (Electrophorus electricus, UniProt O42275): COc1cc(/C=C/C(=O)NCC(O)CNc2c3c(nc4cc(Cl)ccc24)CCCC3)ccc1O (stereo unspecified)
result: 7.70

###

Target: UniProt:P05067
Sequence (P05067 whole entry): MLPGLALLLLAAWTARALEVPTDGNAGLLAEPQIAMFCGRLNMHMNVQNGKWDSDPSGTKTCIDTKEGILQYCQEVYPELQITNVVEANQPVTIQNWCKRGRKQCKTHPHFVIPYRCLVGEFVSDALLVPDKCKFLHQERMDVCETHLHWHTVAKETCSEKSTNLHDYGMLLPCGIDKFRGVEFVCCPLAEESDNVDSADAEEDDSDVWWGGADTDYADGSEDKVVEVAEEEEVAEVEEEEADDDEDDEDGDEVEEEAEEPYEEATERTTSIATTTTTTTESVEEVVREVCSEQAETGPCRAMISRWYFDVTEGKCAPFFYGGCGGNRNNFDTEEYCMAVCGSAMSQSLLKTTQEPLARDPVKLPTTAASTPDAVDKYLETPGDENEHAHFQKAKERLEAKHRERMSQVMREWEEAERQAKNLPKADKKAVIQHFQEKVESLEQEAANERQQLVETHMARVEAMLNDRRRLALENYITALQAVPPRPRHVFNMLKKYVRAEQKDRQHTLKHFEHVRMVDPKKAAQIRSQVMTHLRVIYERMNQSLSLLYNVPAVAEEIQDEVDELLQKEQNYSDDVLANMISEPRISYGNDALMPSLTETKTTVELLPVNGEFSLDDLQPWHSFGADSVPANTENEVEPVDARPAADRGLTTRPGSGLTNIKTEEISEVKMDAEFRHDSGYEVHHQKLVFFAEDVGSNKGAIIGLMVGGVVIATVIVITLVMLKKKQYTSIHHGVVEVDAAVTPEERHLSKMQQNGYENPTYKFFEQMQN
Assay: Inhibition of Amyloid beta (1 to 42) (unknown origin) self aggregation at 50 uM pre-incubated for 24 hrs by Thioflavin T-based fluorometric assay
Documented inhibition across a set of compounds
// unit must come after the numeric part

Example entries and their recorded answers appear below.
[[record]]
compound = "O=C(/C=C/c1ccc(O)c(O)c1)NCC(O)CNc1c2c(nc3ccccc13)CCCC2 (centres undefined)"
measured_property = "inhibition"
readout_value = "49.8%"

[[record]]
compound = "O=C(/C=C/c1ccc(O)c(O)c1)NCC(O)CNc1c2c(nc3cc(Cl)ccc13)CCCC2 (centres undefined)"
measured_property = "inhibition"
readout_value = "53.2%"

[[record]]
compound = "COc1cc(/C=C/C(=O)NCC(O)CNc2c3c(nc4ccccc24)CCCC3)ccc1O (centres undefined)"
measured_property = "inhibition"
readout_value = "46.3%"


For the next question, use this compound.
query: Entry COc1cc(/C=C/C(=O)NCC(O)CNc2c3c(nc4cc(Cl)ccc24)CCCC3)ccc1O (centres undefined) has what inhibition?
result: 48.9%

###

Biological target: UniProtKB P05067
Assay: Inhibition of Amyloid beta (1 to 42) (unknown origin) self aggregation at 5 uM pre-incubated for 24 hrs by Thioflavin T-based fluorometric assay
MEASURED_PROPERTY: inhibition (%)
All answers are understood in %, so give the number only.

[[record]]
compound = "O=C(/C=C/c1ccc(O)c(O)c1)NCC(O)CNc1c2c(nc3cc(Cl)ccc13)CCCC2 (centres undefined)"
target_under_test = "UniProtKB P05067"
measured_property = "inhibition"
unit_annotation = "%"
readout_value = 9.2

[[record]]
compound = "COc1cc(/C=C/C(=O)NCC(O)CNc2c3c(nc4ccccc24)CCCC3)ccc1O (centres undefined)"
target_under_test = "UniProtKB P05067"
measured_property = "inhibition"
unit_annotation = "%"
readout_value = 8.4

[[record]]
compound = "COc1cc(/C=C/C(=O)NCC(O)CNc2c3c(nc4cc(Cl)ccc24)CCCC3)ccc1O (centres undefined)"
target_under_test = "UniProtKB P05067"
measured_property = "inhibition"
unit_annotation = "%"
readout_value = 13.5


query: Entry O=C(/C=C/c1ccc(O)c(O)c1)NCC(O)CNc1c2c(nc3ccccc13)CCCC2 (centres undefined) has what inhibition?
result: 12.8

###

Documented inhibition across a set of compounds
Target: Beta-secretase 1 (Homo sapiens)
Experiment: Inhibition of BACE1 (unknown origin) at 10 uM using ([Asn670, Lue671]-Amyloid beta/A4 precursor protein 770 fragment 667-676-(2,4dinitrophenyl) Lys-Arg-Arg amide trifluoroacetate salt substrate incubated for 2 hrs by FRET assay
All answers are understood in %, so give the number only.

Example entries and their recorded answers appear below.
[[record]]
compound = "O=C(CCCCC1CCSS1)NCC(O)CNc1c2c(nc3ccccc13)CCCC2 (stereo unspecified)"
target_under_test = "Beta-secretase 1 (Homo sapiens)"
readout_value = 24.8

[[record]]
compound = "O=C(/C=C/c1ccc(O)c(O)c1)NCC(O)CNc1c2c(nc3cc(Cl)ccc13)CCCC2 (stereo unspecified)"
target_under_test = "Beta-secretase 1 (Homo sapiens)"
readout_value = 13.1

[[record]]
compound = "O=C(/C=C/c1ccc(O)c(O)c1)NCC(O)CNc1c2c(nc3ccccc13)CCCC2 (stereo unspecified)"
target_under_test = "Beta-secretase 1 (Homo sapiens)"
readout_value = 10.5

[[record]]
compound = "O=C(CCCCC1CCSS1)NCC(O)CNc1c2c(nc3cc(Cl)ccc13)CCCC2 (stereo unspecified)"
target_under_test = "Beta-secretase 1 (Homo sapiens)"
readout_value = 46.8

[[record]]
compound = "COc1cc(/C=C/C(=O)NCC(O)CNc2c3c(nc4ccccc24)CCCC3)ccc1O (stereo unspecified)"
target_under_test = "Beta-secretase 1 (Homo sapiens)"
readout_value = 15


For the next question, use this compound.
query: Entry COc1cc(/C=C/C(=O)NCC(O)CNc2c3c(nc4cc(Cl)ccc24)CCCC3)ccc1O (stereo unspecified) has what inhibition?
result: 2.57

###

Target: Cholinesterase (Equus caballus)
Sequence (P81908 whole entry): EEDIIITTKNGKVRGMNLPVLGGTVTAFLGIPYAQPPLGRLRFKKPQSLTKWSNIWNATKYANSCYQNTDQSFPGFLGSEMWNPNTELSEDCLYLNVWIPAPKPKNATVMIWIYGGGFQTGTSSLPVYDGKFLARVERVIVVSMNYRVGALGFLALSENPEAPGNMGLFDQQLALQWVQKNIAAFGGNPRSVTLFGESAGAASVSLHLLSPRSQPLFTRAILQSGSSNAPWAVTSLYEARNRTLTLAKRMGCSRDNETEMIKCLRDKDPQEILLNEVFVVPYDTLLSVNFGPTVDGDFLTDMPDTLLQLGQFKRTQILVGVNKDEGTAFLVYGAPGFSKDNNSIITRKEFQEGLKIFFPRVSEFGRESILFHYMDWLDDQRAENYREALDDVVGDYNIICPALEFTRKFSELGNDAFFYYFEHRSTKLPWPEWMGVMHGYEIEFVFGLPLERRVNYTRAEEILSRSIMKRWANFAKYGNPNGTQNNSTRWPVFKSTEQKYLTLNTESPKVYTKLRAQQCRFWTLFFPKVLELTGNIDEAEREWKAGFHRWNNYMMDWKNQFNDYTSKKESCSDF
Assay: Inhibition of horse serum BuChE pre-incubated for 20 mins before […] substrate addition by Ellman's assay
Hi! Just check whether IC50 is below 1000 nM. Below gives MET, equal or above gives NOT MET.

These solved cases illustrate the format of a correct answer.
[[record]]
molecule = "O=C(/C=C/c1ccc(O)c(O)c1)NCC(O)CNc1c2c(nc3cc(Cl)ccc13)CCCC2 (stereo unspecified)"
assigned_category = "MET"

[[record]]
molecule = "COc1cc(/C=C/C(=O)NCC(O)CNc2c3c(nc4ccccc24)CCCC3)ccc1O (stereo unspecified)"
assigned_category = "MET"

[[record]]
molecule = "O=C(CCCCC1CCSS1)NCC(O)CNc1c2c(nc3ccccc13)CCCC2 (stereo unspecified)"
assigned_category = "NOT MET"


# evaluate next
query: Say whether its IC50 is strictly beneath 1000 nM. Entry: COc1cc(/C=C/C(=O)NCC(O)CNc2c3c(nc4cc(Cl)ccc24)CCCC3)ccc1O (stereo unspecified)
result: MET

Where these numbers come from: ChEMBL document CHEMBL3392989
